Assay: Stability of the compound in fetal bovine serum assessed as drug degradation incubated for 42 hrs by RP-HPLC analysis
Format: ADME, cell-free, Bos taurus
Details: cattle, read-out: Drug degradation
Positions of bridges follow the written chain, without caps; N, C: chain ends. Non-standard residues stand in square brackets, D forms with d. Residues, ends and D or L forms follow the SMILES beside them. *: point of attachment. 1Nal = N[C@@H](Cc1cccc2ccccc12)C(=O)O; Orn = NCCC[C@H](N)C(=O)O; Acm = CC(=O)NC*

molecule	metabolised at 42 h, %
CC(=O)NCSC[C@@H]1NC(=O)[C@H]([C@@H](C)O)NC(=O)[C@@H](NC(C)=O)CC(=O)NCCCC[C@@H](C(=O)N[C@@H](Cc2c[nH]cn2)C(=O)O)NC(=O)[C@H](CCCNC(=N)N)NC(=O)[C@H](Cc2cccc3ccccc23)NC(=O)[C@H]([C@@H](C)O)NC(=O)[C@H](CCCN)NC(=O)[C@H](CCCNC(=N)N)NC1=O (Ac-DTC(Acm)R[Orn]T[1Nal]RKH-OH; lactam 1-9)	100

###

pKd: −log10 of the molar value. Positions of bridges follow the written chain, without caps; N, C: chain ends. Non-standard residues stand in square brackets, D forms with d. Residues, ends and D or L forms follow the SMILES beside them. *: point of attachment. 1Nal = N[C@@H](Cc1cccc2ccccc12)C(=O)O; hArg = N=C(N)NCCCC[C@H](N)C(=O)O; Orn = NCCC[C@H](N)C(=O)O; Acm = CC(=O)NC*
pKd, Tyrosine-protein kinase JAK2 (Homo sapiens, UniProt O60674): measured values
endpoint: pKd

compound	endpoint	number
CC(=O)NCSC[C@@H]1NC(=O)[C@H]([C@@H](C)O)NC(=O)[C@@H](NC(C)=O)CC(=O)NCCCC[C@@H](C(=O)N[C@@H](Cc2c[nH]cn2)C(=O)O)NC(=O)[C@H](CCCCNC(=N)N)NC(=O)[C@H](Cc2cccc3ccccc23)NC(=O)[C@H]([C@@H](C)O)NC(=O)[C@H](CCCN)NC(=O)[C@H](CCCNC(=N)N)NC1=O (Ac-DTC(Acm)R[Orn]T[1Nal][hArg]KH-OH; lactam 1-9)	pKd	4.41
CC(=O)NCSC[C@@H]1NC(=O)[C@H]([C@@H](C)O)NC(=O)[C@@H](NC(C)=O)CC(=O)NCCCC[C@@H](C(=O)N[C@@H](Cc2c[nH]cn2)C(=O)O)NC(=O)[C@H](CCCNC(=N)N)NC(=O)[C@H](Cc2cccc3ccccc23)NC(=O)[C@H]([C@@H](C)O)NC(=O)[C@H](CCC(N)=O)NC(=O)[C@H](CCCNC(=N)N)NC1=O (Ac-DTC(Acm)RQT[1Nal]RKH-OH; lactam 1-9)	pKd	4.44
CC(=O)NCSC[C@@H]1NC(=O)[C@H]([C@@H](C)O)NC(=O)[C@@H](NC(C)=O)CCC(=O)NCCCC[C@@H](C(=O)N[C@@H](Cc2c[nH]cn2)C(=O)O)NC(=O)[C@H](CCCNC(=N)N)NC(=O)[C@H](Cc2cccc3ccccc23)NC(=O)[C@H]([C@@H](C)O)NC(=O)[C@H](CCC(N)=O)NC(=O)[C@H](CCCNC(=N)N)NC1=O (Ac-ETC(Acm)RQT[1Nal]RKH-OH; lactam 1-9)	pKd	4.28

###

Assay: Stability of the compound in fetal bovine serum incubated for 42 hrs by RP-HPLC analysis
Assay type: ADME, cell-free, Bos taurus
Details: cattle
Positions of bridges follow the written chain, without caps; N, C: chain ends. Non-standard residues stand in square brackets, D forms with d. Residues, ends and D or L forms follow the SMILES beside them. *: point of attachment. 1Nal = N[C@@H](Cc1cccc2ccccc12)C(=O)O; hArg = N=C(N)NCCCC[C@H](N)C(=O)O; Cit = NC(=O)NCCC[C@H](N)C(=O)O; Orn = NCCC[C@H](N)C(=O)O; Dap = NC[C@H](N)C(=O)O; Acm = CC(=O)NC*

molecule	Stability
CC(=O)NCSC[C@@H]1NC(=O)[C@H]([C@@H](C)O)NC(=O)[C@@H](NC(C)=O)CC(=O)NCCCC[C@@H](C(=O)N[C@@H](Cc2c[nH]cn2)C(=O)O)NC(=O)[C@H](CCCCNC(=N)N)NC(=O)[C@H](Cc2cccc3ccccc23)NC(=O)[C@H]([C@@H](C)O)NC(=O)[C@H](CCCNC(N)=O)NC(=O)[C@H](CCCNC(=N)N)NC1=O (Ac-DTC(Acm)R[Cit]T[1Nal][hArg]KH-OH; lactam 1-9)	Stable
CC(=O)NCSC[C@@H]1NC(=O)[C@H]([C@@H](C)O)NC(=O)[C@@H](NC(C)=O)CCC(=O)NC[C@@H](C(=O)N[C@@H](Cc2c[nH]cn2)C(=O)O)NC(=O)[C@H](CCCNC(=N)N)NC(=O)[C@H](Cc2cccc3ccccc23)NC(=O)[C@H]([C@@H](C)O)NC(=O)[C@H](CCC(N)=O)NC(=O)[C@H](CCCNC(=N)N)NC1=O (Ac-ETC(Acm)RQT[1Nal]R[Dap]H-OH; lactam 1-9)	Stable
CC(=O)NCSC[C@@H]1NC(=O)[C@H]([C@@H](C)O)NC(=O)[C@@H](NC(C)=O)CC(=O)NCCCC[C@@H](C(=O)N[C@@H](Cc2c[nH]cn2)C(=O)O)NC(=O)[C@H](CCCCNC(=N)N)NC(=O)[C@H](Cc2cccc3ccccc23)NC(=O)[C@H]([C@@H](C)O)NC(=O)[C@H](CCCN)NC(=O)[C@H](CCCNC(=N)N)NC1=O (Ac-DTC(Acm)R[Orn]T[1Nal][hArg]KH-OH; lactam 1-9)	Stable
CC(=O)NCSC[C@@H]1NC(=O)[C@H]([C@@H](C)O)NC(=O)[C@@H](NC(C)=O)CC(=O)NC[C@@H](C(=O)N[C@@H](Cc2c[nH]cn2)C(=O)O)NC(=O)[C@H](CCCNC(=N)N)NC(=O)[C@H](Cc2cccc3ccccc23)NC(=O)[C@H]([C@@H](C)O)NC(=O)[C@H](CCC(N)=O)NC(=O)[C@H](CCCNC(=N)N)NC1=O (Ac-DTC(Acm)RQT[1Nal]R[Dap]H-OH; lactam 1-9)	Unstable
CC(=O)NCSC[C@@H]1NC(=O)[C@H]([C@@H](C)O)NC(=O)[C@@H](NC(C)=O)CCC(=O)NCCCC[C@@H](C(=O)N[C@@H](Cc2c[nH]cn2)C(=O)O)NC(=O)[C@H](CCCNC(=N)N)NC(=O)[C@H](Cc2cccc3ccccc23)NC(=O)[C@H]([C@@H](C)O)NC(=O)[C@H](CCC(N)=O)NC(=O)[C@H](CCCNC(=N)N)NC1=O (Ac-ETC(Acm)RQT[1Nal]RKH-OH; lactam 1-9)	Stable
CC(=O)NCSC[C@@H]1NC(=O)[C@H]([C@@H](C)O)NC(=O)[C@@H](NC(C)=O)CCC(=O)NCCC[C@@H](C(=O)N[C@@H](Cc2c[nH]cn2)C(=O)O)NC(=O)[C@H](CCCNC(=N)N)NC(=O)[C@H](Cc2cccc3ccccc23)NC(=O)[C@H]([C@@H](C)O)NC(=O)[C@H](CCC(N)=O)NC(=O)[C@H](CCCNC(=N)N)NC1=O (Ac-ETC(Acm)RQT[1Nal]R[Orn]H-OH; lactam 1-9)	Unstable

###

Reported metabolised at 17 h values follow for various compounds
Experiment: Stability of the compound in fetal bovine serum assessed as drug degradation incubated for 17 hrs by RP-HPLC analysis
Format: ADME, cell-free, Bos taurus
Conditions: cattle, read-out: Drug degradation
Positions of bridges follow the written chain, without caps; N, C: chain ends. Non-standard residues stand in square brackets, D forms with d. Residues, ends and D or L forms follow the SMILES beside them. *: point of attachment. 1Nal = N[C@@H](Cc1cccc2ccccc12)C(=O)O; Cit = NC(=O)NCCC[C@H](N)C(=O)O; Orn = NCCC[C@H](N)C(=O)O; Acm = CC(=O)NC*

compound	metabolised at 17 h
CC(=O)NCSC[C@@H]1NC(=O)[C@H]([C@@H](C)O)NC(=O)[C@@H](NC(C)=O)CC(=O)NCCCC[C@@H](C(=O)N[C@@H](Cc2c[nH]cn2)C(=O)O)NC(=O)[C@H](CCCNC(=N)N)NC(=O)[C@H](Cc2cccc3ccccc23)NC(=O)[C@H]([C@@H](C)O)NC(=O)[C@H](CCC(N)=O)NC(=O)[C@H](CCCNC(=N)N)NC1=O (Ac-DTC(Acm)RQT[1Nal]RKH-OH; lactam 1-9)	30%
CC(=O)NCSC[C@@H]1NC(=O)[C@H]([C@@H](C)O)NC(=O)[C@@H](NC(C)=O)CC(=O)NCCCC[C@@H](C(=O)N[C@@H](Cc2c[nH]cn2)C(=O)O)NC(=O)[C@H](CCCNC(=N)N)NC(=O)[C@H](Cc2cccc3ccccc23)NC(=O)[C@H]([C@@H](C)O)NC(=O)[C@H](CCCN)NC(=O)[C@H](CCCNC(=N)N)NC1=O (Ac-DTC(Acm)R[Orn]T[1Nal]RKH-OH; lactam 1-9)	30%
CC(=O)NCSC[C@@H]1NC(=O)[C@H]([C@@H](C)O)NC(=O)[C@@H](NC(C)=O)CC(=O)NCCCC[C@@H](C(=O)N[C@@H](Cc2c[nH]cn2)C(=O)O)NC(=O)[C@H](CCCNC(=N)N)NC(=O)[C@H](Cc2cccc3ccccc23)NC(=O)[C@H]([C@@H](C)O)NC(=O)[C@H](CCCNC(N)=O)NC(=O)[C@H](CCCNC(=N)N)NC1=O (Ac-DTC(Acm)R[Cit]T[1Nal]RKH-OH; lactam 1-9)	50%

Data provenance: ChEMBL document CHEMBL5352432
